# assayedSystem: TYK2 kinase domain (Homo sapiens (Human))
# Sequence (P29597 873-1187): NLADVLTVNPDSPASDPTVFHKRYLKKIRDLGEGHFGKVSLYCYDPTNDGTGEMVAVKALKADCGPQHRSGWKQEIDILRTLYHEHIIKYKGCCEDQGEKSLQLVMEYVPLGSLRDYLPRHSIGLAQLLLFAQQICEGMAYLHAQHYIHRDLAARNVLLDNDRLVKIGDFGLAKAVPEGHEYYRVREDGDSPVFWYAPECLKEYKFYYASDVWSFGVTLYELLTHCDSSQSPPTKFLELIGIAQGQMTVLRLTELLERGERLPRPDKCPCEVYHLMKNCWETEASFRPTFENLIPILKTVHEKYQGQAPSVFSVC
# protocolDescription: TYK2 inhibition assay (Caliper LabChip, isolated kinase domain)
# Type: biochemical
# measurementConditions: 25 uM ATP, 1 nM TYK2; read-out: TYK2 enzymatic activity (Ki)
# Procedure: […] The activity of the isolated JAK1, JAK2 or TYK2 kinase domain was measured by monitoring phosphorylation of a peptide derived from JAK3 ([…] fluorescently labeled on the N-terminus with 5-carboxyfluorescein using the Caliper LabChip technology (Caliper Life Sciences, Hopkinton, Mass.). […] Ki values were then determined using the Morrison tight binding model. […]
observable: Ki (nM)

compound: COc1ccc(Cl)cc1-c1nn(CC(=O)N2CC=CCC2)cc1NC(=O)c1cnn2cccnc12 [Example 300]
value: 10
--
compound: Cc1cc(NC(=O)c2cnn3cccnc23)n(-c2cc(C#N)ccc2Cl)n1 [Example 38]
value: 131
--
compound: Cc1cc(NC(=O)c2cnn3cccnc23)n(-c2ccccc2Br)n1 [Example 44]
value: 480
--
compound: Cc1cc(NC(=O)c2cnn3cccnc23)n(-c2cc(Cl)ccc2C)n1 [Example 6]
value: 99.6
--
compound: COc1ncc(Cl)cc1-c1nn(CC(=O)N(C)C)cc1NC(=O)c1cnn2cccnc12 [Example 499]
value: 14
